# Method Summary: Clearance in Sprague-Dawley rat at 1 mg/kg, iv
# Type: ADME, organism-based
# Stated Conditions: in vivo
Readout Name: clearance (mL/min/kg)

Guide cases for clearance, answers given:
Task item: Please report the measured clearance for `CCc1nn2c(C)cc(C)nc2c1Cc1ccc(CCC(=O)N2CCNCC2)cc1`
Reply: 28

Task item: Provide only the value of recorded clearance for `CCc1nn2c(C)cc(C)nc2c1Cc1ccc(/C=C/CN2CCNC(=O)C2)cc1`
Reply: 4

Task item: Return clearance for the following compound: CCc1nn2c(C)cc(C)nc2c1Cc1ccc(CCC(O)C2CCNCC2)cc1 (stereo not drawn)
Reply: 31

Task item: Tell me its clearance given `CCc1nn2c(C)cc(C)nc2c1Cc1ccc(/C=C/CN2CCN(C(C)C)CC2)cc1` as the entry.
Reply: 12

a. CCc1nn2c(C)cc(C)nc2c1Cc1ccc(/C=C/CN2CCN(C[C@@H](O)CO)CC2)cc1
b. CCc1nn2c(C)cc(C)nc2c1Cc1ccc(CCCN2CCN(C(C)C)CC2)cc1
Task item: Consider entries a and b . Which has the numerically lower clearance? Bench note: the answer is the label of the chosen record.
Reply: a

a. CCc1nn2c(C)cc(C)nc2c1Cc1ccc(-c2nnc(C3CCNCC3)o2)cc1
b. CCc1nn2c(C)cc(C)nc2c1Cc1ccc(CCCC2(O)CCNCC2)cc1
Task item: // compare: a vs b , metric clearance, want the smaller Identify your selection by its label.
Reply: a

----------
# Method Summary: Drug level in blood of methylated BSA and complete Freund's adjuvant sensitized Lewis rat antigen-induced arthritis model at 30 mg/kg, po bid for 7 days and measured 2 hrs post dose
# Format: ADME, organism-based
# Stated Conditions: read-out: Drug uptake
Readout Name: concentration at 2 h (µM)
Write the number in µM without appending the unit.

Task item: For `CCc1nn2c(C)cc(C)nc2c1Cc1ccc(/C=C/CN2CCNC(=O)C2)cc1` , write its concentration at 2 h.
Reply: 23
